Each entry below carries its recorded viability.
Assay: reversal of MRP1-mediated doxorubicin resistance, pilot screen, H69AR cells, doxorubicin co-treatment (AID 601)
Settings: H69AR cells + 2 uM doxorubicin, CellTiter-Glo, 72 h; measured here: viability with 2 uM doxorubicin; at 10 µM; stronger effect = lower value
Give a bare numeral; the unit % is implied.

COC(=O)c1cccc(NC(=O)NC2CCCN2S(=O)(=O)c2ccc(Cl)cc2)c1 (stereo unspecified) | 82.7

Req: # lookup: viability of `Cc1nn(C(=O)c2cc3sccc3[nH]2)c(C)c1C`
Resp: 103

Req: Continue with `COC(=O)c1ccccc1S(=O)(=O)N(CCCO)Cc1cc2c(C)ccc(C)c2[nH]c1=O`
Resp: 81.6

Req: Do the same for `O=C(Nn1cnnc1)c1cc2c(s1)CCCC2` please
Resp: 104

Req: # iterate: `O=C1CCCc2c1cc(C(=O)NCc1ccco1)c(=O)n2-c1ccc(Cl)cc1`
Resp: 80.5

Req: Also `Cc1ccc(-c2nnc3ccc(SCC(=O)NCc4ccco4)nn23)cc1` ?
Resp: 83.9

Req: Okay, and O=C(C1CCCN(S(=O)(=O)c2cnc[nH]2)C1)N1CC(=O)N(CCc2ccccc2)C(=O)C1 (stereo unspecified) ?
Resp: 99.7
